Origin of the recorded values: ChEMBL document CHEMBL1201862

Assign GI50 to each entry below.
Test system: RPMI-8226
Method summary: NCI tumour cell line growth inhibition, 48 h
Calls of active or inactive are those of the source. Rule as the data show it: active = GI50 up to about 1.1 µM and inactive = higher.

Query block: Give RPMI-8226 GI50 for CCC1(Cl)C(=O)NC(=O)N(C2CC(O)C(CO)O2)C1N=[N+]=[N-] (stereo unspecified)
Result block: > 100 µM (inactive)

Query block: Give RPMI-8226 GI50 for "CCOC(=O)CN(Cc1ccccc1)Cc1c(C(=O)c2ccccc2)c2ccccc2n1C(=O)c1ccccc1"
Result block: 17.9 µM (inactive)

Query block: Give RPMI-8226 GI50 for "COc1c(O)ccc(C2=Cc3ccc(O)cc3OC2)c1OC"
Result block: 3.51 µM (inactive)

Query block: Give RPMI-8226 GI50 for CC1(CO)C(=O)OC12CCCCC2 (stereo unspecified)
Result block: > 100 µM (inactive)

Query block: Give RPMI-8226 GI50 for "COc1ccc(/C=C(\Cl)c2ccc(OC)cc2)cc1"
Result block: > 100 µM (inactive)

Query block: Give RPMI-8226 GI50 for "O=C(c1ccccn1)C1(N2CCCCC2)CCCCC1"
Result block: 50.2 µM (inactive)
